system: SK-CO-1 (Mut) colon tumor cells; experiment: CyQUANT proliferation assay; assay type: cell-based; conditions: Homo sapiens, SK-CO-1; Table 11, colon; read-out: IC50 (μM) SK-CO-1 (Mut)
Recorded measurements of IC50, one per entry
Give the quantity in µM, number only.

Field: example entries. Status: answers known.
COc1ccc([C@@H](C)N(CC=C(c2ccccc2)c2ccccc2)CCCN2CCN(C)CC2)cc1 [NY0335]	3.5
COc1ccc([C@@H](C)N(CC=C(c2ccccc2)c2ccccc2)CCN2CCN(C)CC2)cc1 [NY0244]	3.3

Let's switch to this compound now.
# IC50 lookup, item CC(NCCC(c1ccccc1)c1ccccc1)c1ccccc1 (stereo not drawn) [Fendiline]
7.8

###

target: mGFP-K-RASG12V (Homo sapiens (Human), UniProt P01116, G12V); experiment: K-Ras mislocalization assay (confocal microscopy, Manders coefficient); type: cell-based; design: key: Manders coefficient: fraction of mCherry-CAAX co-localizing with GFP-K-Ras; settings: maximal effect, Manders coefficient; MDCK cells, 48 h
attribute.measured: Emax
Write the number on its own, no unit after it.

Field: example entries. Status: answers known.
COc1ccc(-c2cc(C(=O)N(CCN3CCCC3)[C@H](C)c3ccc(F)cc3)no2)cc1	0.852
COc1ccc([C@@H](C)N(CC=C(c2ccccc2)c2ccccc2)CCN2CCC2)cc1	0.694

Let's switch to this compound now.
# Emax lookup, item COc1ccc(CCN(CC=C(c2ccccc2)c2ccccc2)CC=C(c2ccccc2)c2ccccc2)cc1
0.605

###

Recorded measurements of pIC50, one per entry
test system: MOH (Mut) pancreatic tumor cells; assay: CyQUANT proliferation assay; format: cell-based; conditions: 72 h; read-out: IC50 proliferation MOH (Mut)
Please keep in mind that pIC50 is minus log10 of the molar concentration; only the number is needed.

Field: example entries. Status: answers known.
CC(NCCC(c1ccccc1)c1ccccc1)c1ccccc1 (stereo not shown)	4.95
COc1ccc([C@@H](C)N(CC=C(c2ccccc2)c2ccccc2)CCN2CCN(C)CC2)cc1	5.44
COc1ccc([C@@H](C)N(CC=C(c2ccccc2)c2ccccc2)CCCN2CCN(C)CC2)cc1	5.42

Let's switch to this molecule now.
# pIC50 lookup, item COc1ccc([C@@H](C)N(CC=C(c2ccccc2)c2ccccc2)CCN2CCCC2)cc1
5.45

###

Recorded measurements of Emax, one per entry
target: mGFP-K-RASG12V (Homo sapiens (Human), UniProt P01116, G12V); assay: K-Ras mislocalization assay (confocal microscopy, Manders coefficient); format: cell-based; set-up: key: Manders coefficient: fraction of mCherry-CAAX co-localizing with GFP-K-Ras; details: maximal effect, Manders coefficient; MDCK cells, 48 h
Write the number on its own, no unit after it.

Field: example entries. Status: answers known.
COc1ccc([C@@H](C)N(CC=C(c2ccccc2)c2ccccc2)CCN2CCN(CC(C)C)CC2)cc1	0.868
C[C@H](c1ccc(F)cc1)N(CC=C(c1ccccc1)c1ccccc1)CCn1ccc2cccnc21	0.685
COc1ccc([C@@H](C)N(CC=C(c2ccccc2)c2ccccc2)CCN(C)C)cc1	0.658
CCCCNC(=O)N(CC=C(c1ccccc1)c1ccccc1)[C@H](C)c1ccc(OC)cc1	0.858
COc1ccc([C@@H](C)N(CC=C(c2ccccc2)c2ccccc2)C(=O)C(C)F)cc1 (some centres unmarked)	0.842
O=C(c1ccc(F)cc1)N(CC=C(c1ccccc1)c1ccccc1)CCN1CCCC1	0.572
C=CC(=O)N(CC=C(c1ccccc1)c1ccccc1)[C@H](C)c1ccc(OC)cc1	0.59

Let's switch to this molecule now.
Enter reported Emax observed with mGFP-K-RASG12V (Homo sapiens (Human), UniProt P01116, G12V) for COc1ccc([C@@H](C)N(CC=C(c2ccccc2)c2ccccc2)S(C)(=O)=O)cc1
0.785
